assay-method-text: Apparent permeability of the compound by PAMPA
Format: ADME
measured-endpoint: Papp

* CCCCc1cn(-c2cccc(S(=O)(=O)Nc3ccccc3C(F)(F)F)c2)nn1 | 0.21 ×10⁻⁶ cm/s
* CCOCc1cn(-c2cccc(S(=O)(=O)Nc3ccccc3C(F)(F)F)c2)nn1 | 0.71 ×10⁻⁶ cm/s
* CCCCc1cn(-c2cccc(S(=O)(=O)Nc3cccc4cnccc34)c2)nn1 | 0.68 ×10⁻⁶ cm/s
* CCCCc1cn(-c2cccc(S(=O)(=O)Nc3ccccc3O)c2)nn1 | 0.1 ×10⁻⁶ cm/s
* O=[N+]([O-])c1cccc(S(=O)(=O)Nc2ccccc2O)c1 | < 0.1 ×10⁻⁶ cm/s
* CCOCc1cn(-c2cccc(S(=O)(=O)Nc3cccc4cnccc34)c2)nn1 | 0.44 ×10⁻⁶ cm/s

---

target-or-test-system: ATP-dependent RNA helicase DDX3X (Homo sapiens)
Sequence (O00571 2-662 limits assumed): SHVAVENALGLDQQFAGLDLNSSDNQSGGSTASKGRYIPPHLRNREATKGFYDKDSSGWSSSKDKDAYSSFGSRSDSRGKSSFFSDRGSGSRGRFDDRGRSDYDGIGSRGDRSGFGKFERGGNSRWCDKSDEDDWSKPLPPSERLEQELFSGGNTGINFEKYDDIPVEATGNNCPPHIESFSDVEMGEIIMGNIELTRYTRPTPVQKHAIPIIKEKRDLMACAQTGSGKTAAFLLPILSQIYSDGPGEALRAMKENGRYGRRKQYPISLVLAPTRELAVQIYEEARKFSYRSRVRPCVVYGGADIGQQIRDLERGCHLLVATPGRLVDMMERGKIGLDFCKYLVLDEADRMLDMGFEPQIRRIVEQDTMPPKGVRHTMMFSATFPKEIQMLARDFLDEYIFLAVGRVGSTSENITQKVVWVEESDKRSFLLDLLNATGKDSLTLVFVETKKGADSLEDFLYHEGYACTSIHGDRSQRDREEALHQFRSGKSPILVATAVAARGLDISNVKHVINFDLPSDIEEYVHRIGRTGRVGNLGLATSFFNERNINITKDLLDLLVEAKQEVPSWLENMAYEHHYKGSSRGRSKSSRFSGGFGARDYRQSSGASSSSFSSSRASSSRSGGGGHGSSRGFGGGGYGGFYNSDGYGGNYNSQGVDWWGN
assay-method-text: Inhibition of full length His-tagged human DDX3X expressed in Escherichia coli assessed as reduction in DDX3X helicase activity using FAM-labeled double stranded RNA as substrate after 40 mins by FRET assay relative to control
Catalogue of inhibition readings, one per entry.
measured-endpoint: inhibition (%)

* CCc1cn(-c2cccc(S(=O)(=O)Nc3ccccc3C(F)(F)F)c2)nn1 | 71
* CC(C)CCc1cn(-c2cccc(S(=O)(=O)Nc3ccccc3C(F)(F)F)c2)nn1 | 96
* CCCCc1cn(-c2cccc(S(=O)(=O)Nc3ccccc3OC)c2)nn1 | 98
* CCCCc1cn(-c2cccc(S(=O)(=O)Nc3ccccc3C)c2)nn1 | 59
* COCCc1cn(-c2cccc(S(=O)(=O)Nc3ccccc3C(F)(F)F)c2)nn1 | 67
* CCOCc1cn(-c2cccc(S(=O)(=O)Nc3ccccc3C(F)(F)F)c2)nn1 | 98
* CCCCc1cn(-c2cccc(S(=O)(=O)Nc3cccc4cnccc34)c2)nn1 | 99
* CCCCc1cn(-c2cccc(S(=O)(=O)Nc3ccccc3C(F)(F)F)c2)nn1 | 98
* O=S(=O)(Nc1ccccc1C(F)(F)F)c1cccc(-n2cc(C3CCCCC3)nn2)c1 | 52

---

Protein target, amino acids: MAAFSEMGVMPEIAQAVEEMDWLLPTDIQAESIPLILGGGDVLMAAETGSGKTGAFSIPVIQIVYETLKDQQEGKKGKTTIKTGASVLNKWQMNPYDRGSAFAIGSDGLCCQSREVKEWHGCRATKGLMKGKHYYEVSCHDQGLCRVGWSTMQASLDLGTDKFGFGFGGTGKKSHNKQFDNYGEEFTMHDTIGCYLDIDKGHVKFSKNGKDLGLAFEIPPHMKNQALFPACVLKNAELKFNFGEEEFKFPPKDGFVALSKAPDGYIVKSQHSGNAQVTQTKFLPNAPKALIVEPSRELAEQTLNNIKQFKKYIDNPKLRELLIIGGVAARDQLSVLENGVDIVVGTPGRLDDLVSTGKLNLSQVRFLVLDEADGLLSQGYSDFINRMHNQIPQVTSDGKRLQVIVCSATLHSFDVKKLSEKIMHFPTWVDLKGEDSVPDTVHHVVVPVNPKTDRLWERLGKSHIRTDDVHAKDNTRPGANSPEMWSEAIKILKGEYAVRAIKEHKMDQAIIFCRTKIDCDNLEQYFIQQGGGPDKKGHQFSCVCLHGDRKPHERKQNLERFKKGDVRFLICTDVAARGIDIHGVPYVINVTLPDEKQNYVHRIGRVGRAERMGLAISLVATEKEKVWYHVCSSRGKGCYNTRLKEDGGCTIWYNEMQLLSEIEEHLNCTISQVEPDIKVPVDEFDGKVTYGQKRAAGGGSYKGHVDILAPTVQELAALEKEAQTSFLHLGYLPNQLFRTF
Each item that follows carries a reported IC50.
measured-endpoint: IC50

- CCCCc1cn(-c2ccc(NC(=O)Nc3ccccc3C)cc2)nn1: > 200 µM
- CCCCc1cn(-c2cccc(S(=O)(=O)Nc3ccccc3C(F)(F)F)c2)nn1: > 200 µM

---

assay-method-text: Metabolic stability in human liver microsomes at 50 uM after 60 mins in presence of NADPH-generating system by LC-UV-MS analysis
Format: ADME, Microsome
condition-details: read-out: Stability
Reported remaining at 1 h, 50 µM values follow for various compounds
measured-endpoint: remaining at 1 h, 50 µM (%)

• O=[N+]([O-])c1cccc(S(=O)(=O)Nc2ccccc2O)c1 = 98.3
• CCCCc1cn(-c2ccc(NC(=O)Nc3ccccc3C)cc2)nn1 = 99
• CCCCc1cn(-c2cccc(S(=O)(=O)Nc3cccc4cnccc34)c2)nn1 = 98
• CCOCc1cn(-c2cccc(S(=O)(=O)Nc3cccc4cnccc34)c2)nn1 = 96
• CCOCc1cn(-c2cccc(S(=O)(=O)Nc3ccccc3C(F)(F)F)c2)nn1 = 97.1
• CCCCc1cn(-c2cccc(S(=O)(=O)Nc3ccccc3C(F)(F)F)c2)nn1 = 99
• CCCCc1cn(-c2cccc(S(=O)(=O)Nc3ccccc3O)c2)nn1 = 95.6

---

assay-method-text: Cytotoxicity against human HuH7 cells after 3 days by MTT assay
Format: cell-based, Huh-7
condition-details: human, HuH7 cells
Recorded CC50 at 72 h values for a group of compounds are listed next.
measured-endpoint: CC50 at 72 h

* CCCCc1cn(-c2cccc(S(=O)(=O)Nc3ccccc3O)c2)nn1 | > 200 µM
* O=[N+]([O-])c1cccc(S(=O)(=O)Nc2ccccc2O)c1 | 175 µM
* CCCCc1cn(-c2cccc(S(=O)(=O)Nc3ccccc3C)c2)nn1 | > 200 µM
